Sourced from ChEMBL document CHEMBL6096628

# experiment: AUC (0 to t) in ICR mouse at 20 mg/kg, IG administered via gavage and measured after 24 hrs by LC-MS analysis
# Type: ADME, organism-based
# stated conditions: in vivo, po
property measured: AUC(0-t) at 24 h (µg·h/mL)
Return type: number; implicit unit µg·h/mL.

Form: compound = COc1cc(-c2cn(C)c(=O)c3ccccc23)cc(OC)c1CN1CCC(CN2CCC(c3ccc4c5c(cccc35)C(=O)N4C3CCC(=O)NC3=O)CC2)CC1 (stereo unspecified) ; AUC(0-t) at 24 h = 1.3

----------
# Tested on: MV4-11
# experiment: Antiproliferative activity against CRBN knockout human MV4-11 cells assessed as inhibition of cell growth incubated for 7 days by MTS reagent based assay
# Assay type: functional
# stated conditions: MV4-11, 168 h
Assign IC50 to each entry below.

Form: compound = COc1cc(-c2cn(C)c(=O)c3ccccc23)cc(OC)c1CN1CCN(c2ccc(C(=O)NC3CCC(=O)NC3=O)nc2)CC1 (stereo unspecified) ; IC50 = > 5 µM

Form: compound = COc1cc(-c2cn(C)c(=O)c3ccccc23)cc(OC)c1CN1CCC(c2ccc3c4c(cccc24)C(=O)N3C2CCC(=O)NC2=O)CC1 (stereo unspecified) ; IC50 = > 5 µM

Form: compound = COc1cc(-c2cn(C)c(=O)c3ccccc23)cc(OC)c1CN1CCC(CN2CCN(c3ccc(NC4CCC(=O)NC4=O)cc3)CC2)CC1 (stereo unspecified) ; IC50 = > 5 µM

Form: compound = COc1cc(-c2cn(C)c(=O)c3ccccc23)cc(OC)c1CN1CCC(CN2CCN(c3ccc(OC4CCC(=O)NC4=O)cc3)CC2)CC1 (stereo unspecified) ; IC50 = > 5 µM

Form: compound = COc1cc(-c2cn(C)c(=O)c3ccccc23)cc(OC)c1CN1CCN(c2ccc(NC3CCC(=O)NC3=O)cn2)CC1 (stereo unspecified) ; IC50 = > 5 µM

Form: compound = COc1cc(-c2cn(C)c(=O)c3ccccc23)cc(OC)c1CN1CCN(c2ccc(C(=O)NC3CCC(=O)NC3=O)cc2)CC1 (stereo unspecified) ; IC50 = > 5 µM

Form: compound = COc1cc(-c2cn(C)c(=O)c3ccccc23)cc(OC)c1CN1CCC(CN2CCN(c3ccc(NC4CCC(=O)NC4=O)cn3)CC2)CC1 (stereo unspecified) ; IC50 = > 5 µM

Form: compound = COc1cc(-c2cn(C)c(=O)c3ccccc23)cc(OC)c1CN1CCN(c2ccc(NC3CCC(=O)NC3=O)cc2F)CC1 (stereo unspecified) ; IC50 = > 5 µM

Form: compound = COc1cc(-c2cn(C)c(=O)c3ccccc23)cc(OC)c1CN1CCC(CN2CCC(c3ccc4c5c(cccc35)C(=O)N4C3CCC(=O)NC3=O)CC2)CC1 (stereo unspecified) ; IC50 = > 5 µM

Form: compound = COc1cc(-c2cn(C)c(=O)c3ccccc23)cc(OC)c1CN1CCN(c2ccc(C(=O)NC3CCC(=O)NC3=O)cn2)CC1 (stereo unspecified) ; IC50 = > 5 µM

Form: compound = COc1cc(-c2cn(C)c(=O)c3ccccc23)cc(OC)c1CN1CCN(c2ccc(N3CCC(=O)NC3=O)cc2)CC1 ; IC50 = > 5 µM

Form: compound = COc1cc(-c2cn(C)c(=O)c(C)c2C)cc(OC)c1CN1CC[C@H](N2CCN(c3ccc(N[C@H]4CCC(=O)NC4=O)cc3F)CC2)C(F)(F)C1 (racemic) ; IC50 = > 5 µM

Form: compound = COc1cc(-c2cn(C)c(=O)c3ccccc23)cc(OC)c1CN1CCN(c2ccc(C3CCC(=O)NC3=O)cc2)CC1 (stereo unspecified) ; IC50 = > 5 µM

Form: compound = COc1cc(-c2cn(C)c(=O)c3ccccc23)cc(OC)c1CN1CCN(c2ccc(NC3CCC(=O)NC3=O)cc2)CC1 (stereo unspecified) ; IC50 = > 5 µM

Form: compound = COc1cc(-c2cn(C)c(=O)c3ccccc23)cc(OC)c1CN1CCN(c2ccc(OC3CCC(=O)NC3=O)cc2)CC1 (stereo unspecified) ; IC50 = > 5 µM

Form: compound = COc1cc(-c2cn(C)c(=O)c3ccccc23)cc(OC)c1CN1CCC(CN2CCN(c3ccc(C(=O)NC4CCC(=O)NC4=O)nc3)CC2)CC1 (stereo unspecified) ; IC50 = > 5 µM

----------
# measured on: Protein cereblon/Bromodomain-containing protein 9 (Homo sapiens, UniProt Q9H8M2+Q96SW2)
# Sequence (Q96SW2 whole entry, looked up): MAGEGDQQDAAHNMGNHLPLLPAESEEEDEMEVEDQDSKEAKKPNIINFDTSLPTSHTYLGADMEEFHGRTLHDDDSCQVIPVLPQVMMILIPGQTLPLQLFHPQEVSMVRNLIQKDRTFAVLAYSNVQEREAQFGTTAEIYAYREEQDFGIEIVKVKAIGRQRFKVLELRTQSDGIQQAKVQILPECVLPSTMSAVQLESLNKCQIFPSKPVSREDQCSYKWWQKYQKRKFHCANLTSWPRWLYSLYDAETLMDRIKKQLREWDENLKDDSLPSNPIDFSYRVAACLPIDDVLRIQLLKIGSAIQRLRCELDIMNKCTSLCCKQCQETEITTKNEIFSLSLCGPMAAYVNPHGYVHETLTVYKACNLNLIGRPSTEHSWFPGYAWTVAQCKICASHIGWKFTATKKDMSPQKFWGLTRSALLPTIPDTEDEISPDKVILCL
# Sequence (Q9H8M2 whole entry, looked up): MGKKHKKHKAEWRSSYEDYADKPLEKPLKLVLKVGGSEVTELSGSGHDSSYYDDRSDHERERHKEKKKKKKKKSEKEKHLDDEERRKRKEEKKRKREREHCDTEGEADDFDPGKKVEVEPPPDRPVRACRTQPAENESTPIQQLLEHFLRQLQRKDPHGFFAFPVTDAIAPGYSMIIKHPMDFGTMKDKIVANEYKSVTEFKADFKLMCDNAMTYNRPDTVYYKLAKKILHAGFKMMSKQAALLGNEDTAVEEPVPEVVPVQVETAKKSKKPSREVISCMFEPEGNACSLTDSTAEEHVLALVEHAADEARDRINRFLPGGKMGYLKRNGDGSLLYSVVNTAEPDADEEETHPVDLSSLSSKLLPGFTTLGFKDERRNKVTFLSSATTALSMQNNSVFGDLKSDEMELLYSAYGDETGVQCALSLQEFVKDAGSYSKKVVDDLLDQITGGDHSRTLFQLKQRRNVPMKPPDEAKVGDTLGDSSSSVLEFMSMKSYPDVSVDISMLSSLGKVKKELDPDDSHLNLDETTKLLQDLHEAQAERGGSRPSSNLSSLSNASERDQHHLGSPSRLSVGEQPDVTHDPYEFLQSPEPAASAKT
# experiment: PROTAC activity at CRBN/BRD9 in human MV4-11 cells assessed as induction of BRD9 degradation at 10 nM by Western blot analysis relative to control
# Assay type: cell-based
property measured: Activity (%)
Return type: number; implicit unit %.

Form: compound = COc1cc(-c2cn(C)c(=O)c3ccccc23)cc(OC)c1CN1CCN(c2ccc(C3CCC(=O)NC3=O)cc2)CC1 (centres undefined) ; Activity = 87.3

Form: compound = COc1cc(-c2cn(C)c(=O)c3ccccc23)cc(OC)c1CN1CCC(c2ccc3c4c(cccc24)C(=O)N3C2CCC(=O)NC2=O)CC1 (centres undefined) ; Activity = 80.5

Form: compound = COc1cc(-c2cn(C)c(=O)c3ccccc23)cc(OC)c1CN1CCN(c2ccc(OC3CCC(=O)NC3=O)cc2)CC1 (centres undefined) ; Activity = 60.5

Form: compound = COc1cc(-c2cn(C)c(=O)c3ccccc23)cc(OC)c1CN1CCN(c2ccc(N3CCC(=O)NC3=O)cc2)CC1 ; Activity = 8

----------
# measured on: Protein cereblon/Bromodomain-containing protein 9 (Homo sapiens, UniProt Q9H8M2+Q96SW2)
# experiment: PROTAC activity at CRBN/BRD9 in human MV4-11 cells assessed as induction of BRD9 degradation at 1 nM by Western blot analysis relative to control
# Type: cell-based
property measured: Activity (%)
Return type: number; implicit unit %.

Form: molecule = COc1cc(-c2cn(C)c(=O)c3ccccc23)cc(OC)c1CN1CCN(c2ccc(C(=O)NC3CCC(=O)NC3=O)nc2)CC1 (stereo unspecified) ; Activity = 18.3

Form: molecule = COc1cc(-c2cn(C)c(=O)c3ccccc23)cc(OC)c1CN1CCN(c2ccc(NC3CCC(=O)NC3=O)cn2)CC1 (stereo unspecified) ; Activity = 41.7

Form: molecule = COc1cc(-c2cn(C)c(=O)c3ccccc23)cc(OC)c1CN1CCN(c2ccc(NC3CCC(=O)NC3=O)cc2)CC1 (stereo unspecified) ; Activity = 45.5

Form: molecule = COc1cc(-c2cn(C)c(=O)c3ccccc23)cc(OC)c1CN1CCN(c2ccc(NC3CCC(=O)NC3=O)cc2F)CC1 (stereo unspecified) ; Activity = 34

Form: molecule = COc1cc(-c2cn(C)c(=O)c3ccccc23)cc(OC)c1CN1CCN(c2ccc(C(=O)NC3CCC(=O)NC3=O)cn2)CC1 (stereo unspecified) ; Activity = 33.3

Form: molecule = COc1cc(-c2cn(C)c(=O)c3ccccc23)cc(OC)c1CN1CCC(CN2CCC(c3ccc4c5c(cccc35)C(=O)N4C3CCC(=O)NC3=O)CC2)CC1 (stereo unspecified) ; Activity = 92.5

Form: molecule = COc1cc(-c2cn(C)c(=O)c3ccccc23)cc(OC)c1CN1CCN(c2ccc(OC3CCC(=O)NC3=O)cc2)CC1 (stereo unspecified) ; Activity = 32

Form: molecule = COc1cc(-c2cn(C)c(=O)c3ccccc23)cc(OC)c1CN1CCN(c2ccc(C3CCC(=O)NC3=O)cc2)CC1 (stereo unspecified) ; Activity = 65

Form: molecule = COc1cc(-c2cn(C)c(=O)c3ccccc23)cc(OC)c1CN1CCN(c2ccc(C(=O)NC3CCC(=O)NC3=O)cc2)CC1 (stereo unspecified) ; Activity = 26.7

Form: molecule = COc1cc(-c2cn(C)c(=O)c3ccccc23)cc(OC)c1CN1CCC(CN2CCN(c3ccc(OC4CCC(=O)NC4=O)cc3)CC2)CC1 (stereo unspecified) ; Activity = 13

Form: molecule = COc1cc(-c2cn(C)c(=O)c3ccccc23)cc(OC)c1CN1CCC(CN2CCN(c3ccc(NC4CCC(=O)NC4=O)cn3)CC2)CC1 (stereo unspecified) ; Activity = 56

Form: molecule = COc1cc(-c2cn(C)c(=O)c3ccccc23)cc(OC)c1CN1CCN(c2ccc(N3CCC(=O)NC3=O)cc2)CC1 ; Activity = 12

Form: molecule = COc1cc(-c2cn(C)c(=O)c3ccccc23)cc(OC)c1CN1CCC(c2ccc3c4c(cccc24)C(=O)N3C2CCC(=O)NC2=O)CC1 (stereo unspecified) ; Activity = 79.5

Form: molecule = COc1cc(-c2cn(C)c(=O)c3ccccc23)cc(OC)c1CN1CCC(CN2CCN(c3ccc(C(=O)NC4CCC(=O)NC4=O)nc3)CC2)CC1 (stereo unspecified) ; Activity = 29.5

Form: molecule = COc1cc(-c2cn(C)c(=O)c3ccccc23)cc(OC)c1CN1CCC(CN2CCN(c3ccc(NC4CCC(=O)NC4=O)cc3)CC2)CC1 (stereo unspecified) ; Activity = 69.5

Form: molecule = COc1cc(-c2cn(C)c(=O)c(C)c2C)cc(OC)c1CN1CC[C@H](N2CCN(c3ccc(N[C@H]4CCC(=O)NC4=O)cc3F)CC2)C(F)(F)C1 (racemic) ; Activity = 6.9
